Each entry below carries its reported Dose Normalized AUC.
- METHOD_SUMMARY: Rat Early Pharmacokinetic (EPK) study
- Format: in vivo
- TEST_SETTINGS: 30 mg/kg PO, 0.5% CMC
REPORTED_PROPERTY: Dose Normalized AUC (nM·h)

- O=C1CN(C(=O)C(c2ccccc2)c2ccccc2)CCN1: 1087
- O=C1CN(C(=O)NC(c2ccccc2)c2ccccc2)CCN1: 993
- O=C1CN(C(=O)C=C(c2ccccc2)c2ccccc2)CCN1: 185
- O=C1CN(C(=O)C[S+]([O-])C(c2ccccc2)c2ccccc2)CCN1 (stereo not shown): 283

====

- TARGET_OR_SYSTEM: human Nav1.5 channel (Homo sapiens)
- Sequence (Q14524 whole entry): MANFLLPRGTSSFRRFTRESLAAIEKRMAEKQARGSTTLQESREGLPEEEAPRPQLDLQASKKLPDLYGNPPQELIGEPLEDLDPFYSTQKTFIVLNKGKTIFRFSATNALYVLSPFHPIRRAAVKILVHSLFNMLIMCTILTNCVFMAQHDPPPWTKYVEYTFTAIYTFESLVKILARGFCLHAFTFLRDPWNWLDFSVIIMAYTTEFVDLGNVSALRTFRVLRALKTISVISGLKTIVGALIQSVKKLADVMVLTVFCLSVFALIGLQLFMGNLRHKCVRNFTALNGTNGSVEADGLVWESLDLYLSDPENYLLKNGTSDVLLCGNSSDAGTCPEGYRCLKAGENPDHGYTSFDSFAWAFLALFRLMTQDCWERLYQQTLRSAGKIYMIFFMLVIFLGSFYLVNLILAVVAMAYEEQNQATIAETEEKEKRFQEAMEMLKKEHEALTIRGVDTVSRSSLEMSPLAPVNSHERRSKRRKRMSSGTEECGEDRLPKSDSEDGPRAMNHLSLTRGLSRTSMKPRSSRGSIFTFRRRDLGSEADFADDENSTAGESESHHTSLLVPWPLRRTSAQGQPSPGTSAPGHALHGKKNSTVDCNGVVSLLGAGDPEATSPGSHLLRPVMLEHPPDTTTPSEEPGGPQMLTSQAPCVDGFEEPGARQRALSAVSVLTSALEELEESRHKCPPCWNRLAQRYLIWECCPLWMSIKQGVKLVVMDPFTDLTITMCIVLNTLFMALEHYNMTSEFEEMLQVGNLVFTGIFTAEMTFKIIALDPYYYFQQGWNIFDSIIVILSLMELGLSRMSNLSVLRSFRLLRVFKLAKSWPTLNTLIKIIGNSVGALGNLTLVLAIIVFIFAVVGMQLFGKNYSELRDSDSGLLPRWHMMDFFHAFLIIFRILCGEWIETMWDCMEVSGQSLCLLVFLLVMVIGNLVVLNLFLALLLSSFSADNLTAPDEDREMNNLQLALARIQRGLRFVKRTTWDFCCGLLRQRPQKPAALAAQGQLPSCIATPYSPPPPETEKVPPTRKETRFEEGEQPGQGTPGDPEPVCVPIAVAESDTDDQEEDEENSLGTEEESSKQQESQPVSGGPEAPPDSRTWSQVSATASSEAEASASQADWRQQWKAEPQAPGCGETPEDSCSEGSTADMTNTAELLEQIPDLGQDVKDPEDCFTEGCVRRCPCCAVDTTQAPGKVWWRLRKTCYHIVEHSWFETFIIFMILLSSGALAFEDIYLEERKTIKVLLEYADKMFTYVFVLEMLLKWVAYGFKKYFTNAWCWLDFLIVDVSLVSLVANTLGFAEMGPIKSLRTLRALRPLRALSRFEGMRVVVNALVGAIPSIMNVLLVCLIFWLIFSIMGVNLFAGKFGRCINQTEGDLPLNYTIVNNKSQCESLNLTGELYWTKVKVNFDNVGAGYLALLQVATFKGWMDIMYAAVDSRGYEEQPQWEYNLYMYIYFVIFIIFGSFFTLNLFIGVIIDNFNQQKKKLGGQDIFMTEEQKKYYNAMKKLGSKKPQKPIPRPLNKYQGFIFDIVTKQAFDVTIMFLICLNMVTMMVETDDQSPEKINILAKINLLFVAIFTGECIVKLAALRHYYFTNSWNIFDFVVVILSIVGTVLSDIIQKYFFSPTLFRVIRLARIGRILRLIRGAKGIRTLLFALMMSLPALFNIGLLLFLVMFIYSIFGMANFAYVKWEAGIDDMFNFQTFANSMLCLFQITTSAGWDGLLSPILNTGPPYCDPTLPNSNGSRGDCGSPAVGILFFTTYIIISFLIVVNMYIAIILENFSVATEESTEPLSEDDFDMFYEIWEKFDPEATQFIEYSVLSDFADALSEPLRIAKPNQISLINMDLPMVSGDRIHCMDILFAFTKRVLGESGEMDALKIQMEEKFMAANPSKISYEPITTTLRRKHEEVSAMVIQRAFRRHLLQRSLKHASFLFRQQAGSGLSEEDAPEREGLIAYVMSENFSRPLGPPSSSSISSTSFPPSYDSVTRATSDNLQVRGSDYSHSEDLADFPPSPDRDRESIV
- METHOD_SUMMARY: Nav1.5 sodium channel screening assay (PatchXpress, cardiac action potential waveform)
- TEST_SETTINGS: cardiac action potential waveform at 1 Hz; read-out: HNAV 1.5 CARDIAC AP 1 Hz IC50
pIC50: −log10 of the molar value.
REPORTED_PROPERTY: pIC50

• O=C1CN(C(=O)CC(c2ccccc2)c2ccccc2)CCN1 [Compound 4, 4-(3,3-diphenylpropanoyl)piperazin-2-one] = ≤ 3.52

====

- METHOD_SUMMARY: Rat Early Pharmacokinetic (EPK) study
- Assay type: in vivo
- TEST_SETTINGS: 30 mg/kg PO, 0.5% CMC
REPORTED_PROPERTY: Dose Normalized Cmax (nM)

* O=C1CN(C(=O)C[S+]([O-])C(c2ccccc2)c2ccccc2)CCN1 (stereo not shown) | 182
* O=C1CN(C(=O)C=C(c2ccccc2)c2ccccc2)CCN1 | 132
* O=C1CN(C(=O)C(c2ccccc2)c2ccccc2)CCN1 | 730
* O=C1CN(C(=O)NC(c2ccccc2)c2ccccc2)CCN1 | 333

====

- METHOD_SUMMARY: Rat Early Pharmacokinetic (EPK) study
- Format: in vivo
- TEST_SETTINGS: male, Sprague-Dawley, blood, 30 mg/kg PO, 0.5% CMC
REPORTED_PROPERTY: Tmax (min)

- O=C1CN(C(=O)C(c2ccccc2)c2ccccc2)CCN1: 30
- O=C1CN(C(=O)NC(c2ccccc2)c2ccccc2)CCN1: 102
- O=C1CN(C(=O)C=C(c2ccccc2)c2ccccc2)CCN1: 40.2
- O=C1CN(C(=O)C[S+]([O-])C(c2ccccc2)c2ccccc2)CCN1 (stereo not shown): 30
